Measurement target: PfCRT 7G8+F145I (Plasmodium falciparum, UniProt W7FI62, F145I)
Test method notes: Equilibrium dialysis binding, PfCRT variant in nanodiscs
Stated conditions: Kd, binding at pH 7.5, equilibrium dialysis, pH 7.5
Reported pKd values are given for each entry in this list.
Just the number, please; pKd means minus log10 of the concentration in mol/L.

| Molecule | Measurement target | Observed result |
| --- | --- | --- |
| Clc1ccc2c(N3CCN(CCCN4CCN(c5ccnc6cc(Cl)ccc56)CC4)CC3)ccnc2c1 [PPQ, piperaquine] | PfCRT 7G8+F145I (Plasmodium falciparum, UniProt W7FI62, F145I) | 6.59 |

Exam item: Which pKd value is on record for CCN(CC)CCCC(C)Nc1ccnc2cc(Cl)ccc12 (centres unmarked) [CQ, chloroquine] ?
Marked response: 6.54

Origin of values: paper PMC6911266
